Sourced from PubChem BioAssay AID1259343

experimental-details: Mycobacterium tuberculosis growth inhibition, primary screen (AID 1259343)
condition-label: at 10 µM, active compounds read high
Out of some 6,200 compounds screened, about 2,900 (47%) were called active. So high a share suggests a set chosen from earlier hits. This is one part of the list.
Lab note: compare inhibition against 20%. Equal or greater, write 1. Smaller, write 0.

// inclusive: inhibition at least 20%? input: CC(C)c1ccc(S(=O)(=O)c2ccc(Cl)cc2)cc1
0

Given O=C(NC1(c2ccc(Cl)cc2)CCC1)c1cnsn1 , state whether its inhibition is at least 20%.
1

Please indicate if the recorded inhibition for Cn1cc(C=NNc2ccccc2)c2ccccc21 meets or exceeds 20%.
0

Quick check, inhibition >= 20%? COc1ccc(C(N)=S)cc1
1

Check if inhibition >= 20% (inclusive). Item: C=CCNC(=O)c1cccc(I)c1
0

Does the compound CN(CC(N)=O)S(=O)(=O)c1cc2cc(Cl)ccc2s1 have recorded inhibition that is 20% or more?
1

inhibition >= 20% for CN(C1CCCCC1)S(=O)(=O)NC1COc2ccccc21 (stereo not drawn) ?
1

Please check the record O=C(NC1CCCCC1)c1c(O)nc2ccccn2c1=O and state if its inhibition is at or above 20%.
1

Kindly determine if inhibition recorded for Cc1cccc(C)c1Cn1c(C)c(C(=O)NCc2ccc(Cl)c(Cl)c2)sc1=O is above or exactly 20%.
0

Record O=C(COc1ccc(Cl)cc1)NC1(c2ccccc2)CCC1 ; criterion: inhibition no lower than 20%. Met?
1

Test whether the compound CC(C)c1ccc(C(N)=S)cc1 records inhibition of 20% or higher.
1

Could you please find out whether CCC/C=C/c1cccc(C(=O)NCC)c1 has inhibition that meets 20% or exceeds it?
1
